ASSAYED TARGET: FIRE-3 (Rattus norvegicus)
Construct: encompassing the amino-terminal 589 residues of the type-1 (SI^−) spliced form and 604 amino acids for type-3 homologue linked amino-terminally with CFP and carboxyl-terminally with YFP; unpurified cytosol fraction used
ASSAY REMARKS: In vitro fluorescence (FRET) measurement of InsP3 binding to FIRE-3 in COS-1 cytosol
CONDITION SET: COS-1 cytosolic extract expressing FIRE-3, from changes of F530/F480, 22° C.; read-out: apparent Kd for FIRE-3
MEASURED PARAMETER: pKd
# pKd: negative log10 of molar concentration; output just the value

IN: Provide the reported pKd (system: FIRE-3 (Rattus norvegicus)) for O=P(O)(O)O[C@@H]1[C@H](O)[C@H](O)[C@@H](OP(=O)(O)O)[C@H](OP(=O)(O)O)[C@H]1O [InsP3, inositol 1,4,5-trisphosphate]
OUT: 7.44

Reference source for all entries: patent US20100210819A1
